# assay-details: Phase 1 single ascending dose plasma pharmacokinetics of 40-minute IV infusion of R(−)-ketamine and its metabolites
# experimental-setup: both, human, plasma, intravenous
assay-readout: Vd

stdin: Would you mind telling me what Vd value was observed for CN[C@@]1(c2ccccc2Cl)CCCCC1=O.Cl [R(−)-ketamine] ?
stdout: 345 to 921 L

---

# assay-details: Phase 1 single ascending dose plasma pharmacokinetics of 40-minute IV infusion of R(−)-ketamine and its metabolites
# experimental-setup: both, human, plasma, iv, 5 mg, Arithmetic mean AUC0-24h, 5 mg R(−)-ketamine IV
assay-readout: AUC(0-t)
# number then unit; no other words

{"molecule": "NC1(c2ccccc2Cl)CCCCC1=O (centres unmarked)", "AUC(0-t)": "79.6 ng·h/mL"}

stdin: Would you mind telling me what AUC(0-t) value was observed for CN[C@@]1(c2ccccc2Cl)CCCCC1=O.Cl [R(−)-ketamine] ?
stdout: 63.5 ng·h/mL

---

# assay-details: Phase 1 single ascending dose plasma pharmacokinetics of 40-minute IV infusion of R(−)-ketamine and its metabolites
# experimental-setup: both, human, plasma, intravenous, Plasma Tmax range (mixed units as printed), all dose levels 5 mg to 150 mg
assay-readout: Tmax

stdin: Would you mind telling me what Tmax value was observed for NC1(c2ccccc2Cl)CCCCC1=O (stereo not shown) ?
stdout: 0.667 to 2 h

---

# assay-details: Phase 1 single ascending dose plasma pharmacokinetics of 40-minute IV infusion of R(−)-ketamine and its metabolites
# experimental-setup: both, human, plasma, intravenous, Approximate median plasma Tmax, all dose levels 5 mg to 150 mg
assay-readout: Tmax

stdin: Would you mind telling me what Tmax value was observed for NC1(c2ccccc2Cl)CCCCC1=O (stereo not shown) ?
stdout: ~1 h

---

# assay-details: Phase 1 single ascending dose plasma pharmacokinetics of 40-minute IV infusion of R(−)-ketamine and its metabolites
# experimental-setup: both, human, plasma, intravenous, Median plasma Tmax, all dose levels 5 mg to 150 mg
assay-readout: Tmax (min)
# output: bare number, implied unit min

stdin: Would you mind telling me what Tmax value was observed for CN[C@@]1(c2ccccc2Cl)CCCCC1=O.Cl [R(−)-ketamine] ?
stdout: 40

---

# assay-details: Phase 1 single ascending dose plasma pharmacokinetics of 40-minute IV infusion of R(−)-ketamine and its metabolites
# experimental-setup: both, human, plasma, intravenous
Parameter: half-life. Scope: all listed entries.

{"molecule": "NC1(c2ccccc2Cl)CCCCC1=O (centres unmarked)", "half-life": "6.7 to 8.05 h"}

stdin: Would you mind telling me what half-life value was observed for CN[C@@]1(c2ccccc2Cl)CCCCC1=O.Cl [R(−)-ketamine] ?
stdout: 3.06 to 7.21 h

---

Parameter: AUC(0-t). Scope: all listed entries.
# assay-details: Phase 1 single ascending dose plasma pharmacokinetics of 40-minute IV infusion of R(−)-ketamine and its metabolites
# experimental-setup: both, human, plasma, iv, 150 mg, Arithmetic mean AUC0-t, 150 mg R(−)-ketamine IV
# output: bare number, implied unit ng·h/mL

{"molecule": "NC1(c2ccccc2Cl)CCCCC1=O (centres unmarked)", "AUC(0-t), ng·h/mL": 3140}

Now, please, on to the next molecule.
stdin: Would you mind telling me what AUC(0-t) value was observed for CN[C@@]1(c2ccccc2Cl)CCCCC1=O.Cl [R(−)-ketamine] ?
stdout: 1720

---

# assay-details: Phase 1 single ascending dose plasma pharmacokinetics of 40-minute IV infusion of R(−)-ketamine and its metabolites
# experimental-setup: both, human, plasma, iv, 5 mg, Arithmetic mean AUC0-t, 5 mg R(−)-ketamine IV
assay-readout: AUC(0-t) (ng·h/mL)
# output: bare number, implied unit ng·h/mL

{"compound": "CN[C@@]1(c2ccccc2Cl)CCCCC1=O.Cl [R(−)-ketamine]", "assay-readout": "AUC(0-t)", "recorded-result": 57.5}

stdin: Would you mind telling me what AUC(0-t) value was observed for NC1(c2ccccc2Cl)CCCCC1=O (centres unmarked) [norketamine] ?
stdout: 78
